- EXPERIMENTAL_TARGET: Hv1 WT (Homo sapiens)
- Sequence (Q96D96 whole entry): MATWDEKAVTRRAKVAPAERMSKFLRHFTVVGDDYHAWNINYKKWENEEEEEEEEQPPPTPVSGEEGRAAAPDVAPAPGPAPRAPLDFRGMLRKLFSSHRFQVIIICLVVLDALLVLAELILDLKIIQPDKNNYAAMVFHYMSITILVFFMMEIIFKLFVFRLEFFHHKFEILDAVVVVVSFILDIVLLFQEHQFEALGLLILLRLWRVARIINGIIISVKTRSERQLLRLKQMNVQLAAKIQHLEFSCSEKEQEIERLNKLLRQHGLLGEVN
- COND: IC50 ± SE, Hv1 WT; inside-out patch, +120 mV, pHin = pHout = 6.0
The entries below are paired with their reported pIC50.
pIC50 field: float, defined as -log10 of concentration (mol/L).

Guide cases for pIC50, answers given:
MOL: Nc1nc2cc(F)c(F)cc2[nH]1
EXPERIMENTAL_TARGET: Hv1 WT (Homo sapiens)
pIC50: 3.61

MOL: Nc1nc2ccccc2[nH]1
EXPERIMENTAL_TARGET: Hv1 WT (Homo sapiens)
pIC50: 3.26

MOL: Cc1[nH]c(N)nc1CCC(=O)c1cc(F)cc(F)c1.Cl
EXPERIMENTAL_TARGET: Hv1 WT (Homo sapiens)
pIC50: 4.89

MOL: Nc1nc2cc(F)ccc2[nH]1
EXPERIMENTAL_TARGET: Hv1 WT (Homo sapiens)
pIC50: 3.51

MOL: Nc1nc2c(F)cccc2[nH]1
EXPERIMENTAL_TARGET: Hv1 WT (Homo sapiens)
pIC50: 3.14

Considering `Nc1nc2c(F)c(F)c(F)cc2[nH]1` , its pIC50 with Hv1 WT (Homo sapiens) was recorded as 3.16

Hey, just so you know, these numbers are from paper PMC8263924.
